# assay details: Solubility testing of peptides at different pH
# Type: physicochemical
# experimental parameters: 50 mM phosphate buffer pH 7.4; target concentration 1 mg/ml; 2 hours agitation; read-out: Solubility Buffer pH 7.4
measured quantity: solubility at 2 h

Problem: Need solubility at 2 h, item `CC(=O)NCCCC[C@@H]1NC(=O)[C@H](Cc2c[nH]c3c(C)cccc23)NC(=O)[C@H]([C@@H](C)O)NC(=O)[C@H](CC(N)=O)NC(=O)[C@@H]2CSSC[C@H](NC1=O)C(=O)N[C@@H](Cc1ccc(OCCN(C)C)cc1)C(=O)N[C@H](Cc1ccc3ccccc3c1)C(=O)NC1(CCOCC1)C(=O)N[C@H](C(=O)N[C@@H](CC(N)=O)C(=O)N[C@@H](Cc1cccnc1)C(=O)N(C)CC(N)=O)CCC(=O)NCCCCC(=O)N2`
Solution: ≥ 1060 µg/mL

* * *

Measured solubility at 2 h values are reported for all entries that follow.
# assay details: Solubility testing of peptides at different pH
# Type: physicochemical
# experimental parameters: 50 mM phosphate buffer pH 6.5; target concentration 1 mg/ml; 2 hours agitation; read-out: Solubility Buffer pH 6.5
Starred links: 1 amine or outer side, 2 acyl side, 3 side chain; linkers in the order of their positions; H or OH if unused. Positions of bridges follow the written chain, without caps; N, C: chain ends. Non-standard residues stand in square brackets, D forms with d. Residues, ends and D or L forms follow the SMILES beside them. X3 = CN(CCCCC(=O)N[C@@H](CS[*:2])C(=O)[*:1])[*:3]; 2Nal = N[C@@H](Cc1ccc2ccccc2c1)C(=O)O; AEF = NCCOc1ccc(C[C@H](N)C(=O)O)cc1; αMeL = CC(C)C[C@](C)(N)C(=O)O; Thp = NC1(C(=O)O)CCOCC1

Take a look at these entries with their results.
>  <compound>
CC(=O)N[C@H]1CCCCNC(=O)[C@@H]2CSSC[C@H](NC(=O)[C@H](CCC(N)=O)NC(=O)[C@H](Cc3c[nH]c4ccccc34)NC1=O)C(=O)N[C@@H](Cc1ccc(OCCN)cc1)C(=O)N[C@@H](Cc1ccc3ccccc3c1)C(=O)N[C@@](C)(CC(C)C)C(=O)N[C@H](C(=O)N[C@@H](C)C(=O)NCC(N)=O)CCC(=O)N(C)CCCCC(=O)N2 [compound 18] (Ac-KWQC[AEF][2Nal][αMeL]EAG-NH2; linker 1-4-8 via X3)

>  <solubility at 2 h>
< 10 µg/mL

$$$$
>  <compound>
CC(=O)NCCCC[C@@H]1NC(=O)[C@H](Cc2c[nH]c3c(C)cccc23)NC(=O)[C@@H](NC(C)=O)CCCCNC(=O)[C@@H]2CSSC[C@H](NC1=O)C(=O)N[C@@H](Cc1ccc(OCCN(C)C)cc1)C(=O)N[C@@H](Cc1ccc3ccccc3c1)C(=O)NC1(CCOCC1)C(=O)N[C@H](C(=O)N[C@@H](CC(N)=O)C(=O)N[C@@H](Cc1cccnc1)C(=O)N(C)CC(N)=O)CCCCN(C)CCCCN2C

>  <solubility at 2 h>
≥ 1130 µg/mL

$$$$

Now consider a different compound.
Problem: Need solubility at 2 h, item CC(=O)N[C@H]1CCCCNC(=O)[C@@H]2CSSC[C@H](NC(=O)[C@H](CCC(N)=O)NC(=O)[C@H](Cc3c[nH]c4ccccc34)NC1=O)C(=O)N[C@@H](Cc1ccc(OCCN)cc1)C(=O)N[C@@H](Cc1ccc3ccccc3c1)C(=O)NC1(CCOCC1)C(=O)N[C@H](C(=O)N[C@@H](C)C(=O)N[C@H](CC(C)C)C(N)=O)CCC(=O)N(C)CCCCC(=O)N2 [compound 34] (Ac-KWQC[AEF][2Nal][Thp]EA[dL]-NH2; linker 1-4-8 via X3)
Solution: ≥ 910 µg/mL
